# ASSAY_TARGET: Human SARS-CoV-2_Wuhan S (SmT1) (SARS-CoV-2 (Wuhan), UniProt P0DTC2 14-1208)
# TEST_METHOD_NOTES: flow cytometry SVNA, VHH-Fc vs biotin-S binding to Vero E6 ACE2
# Lookup of reported pIC50 keyed by entry
# pIC50 is unitless: minus log10 of the molar concentration; print number only

| BINDER | pIC50 |
| --- | --- |
| NRCoV2-11 VHH-Fc (Fc fusion, bivalent VHH-Fc) EVQLVSSGGGLVQPGGSLRLSCAASGSSLDSYSVSWFRQAPGKEREWISFISRYYSSTYYTDSVKGRFTTSRDGDQKTVHLQMNSLKPEDTAVYYCAARSRDFSSPFSATDTYTSWGQGTQVTVSS | 8.01 |

Q) I'd like to know its pIC50. The binder in question is NRCoV2-07 VHH-Fc (Fc fusion, bivalent VHH-Fc) QVQLVQSGGGLVQPGGSLRLSCAASGVTLDYYAIGWFRQAPGKEREAVSCISSNGRRNHYVASVRGRFTISRDNAKSTVYLQMNSLKPEDTAVYYCAAVQDVHGDNYYCTSPNEYNVWGQGTQVTVSS
A) 8.17
